- Target system: HLA-A*24 (human)
- Assay overview: UV-ligand exchange ELISA

| Binder | peptide exchange yield |
| --- | --- |
| AYTLIAPNI [peptide SEQ ID No 169] | 50 to 75% |
| VYQGHTALL [peptide SEQ ID No 277] | > 75% |
| VYGFQWRHF [peptide SEQ ID No 276] | > 75% |
| LYIDRPLPYL [peptide SEQ ID No 196] | 50 to 75% |
| NYYEVHKELF [peptide SEQ ID No 270] | 50 to 75% |
| IYATEAHVF [peptide SEQ ID No 201] | 50 to 75% |
| LYITEPKTI [peptide SEQ ID No 287] | 50 to 75% |
| VFQNFPLLF [peptide SEQ ID No 184] | > 75% |
